system: UACC-62 melanoma; experiment: NCI tumour cell line growth inhibition, 48 h; in the data active = GI50 below about 0.43 µM; inactive = the rest
Possible outcomes: active, inactive

compound=COc1ccccc1-[n+]1cc(-c2ccc(-c3ccccc3)cc2)n2c1CCCCC2 discrete_label=active
compound=COc1ccc(-c2cc(-c3ccc(OC)c(OC)c3)nc(SCCCC(=O)NO)n2)cc1 discrete_label=inactive
compound="CSc1nc2c(c(=O)[nH]1)N=C1c3ccccc3C(=O)C1C(c1ccc(F)cc1)N2 (stereo not given)" discrete_label=inactive
compound=O=S(=O)([O-])c1cccc2cccc(N=Cc3ccccc3[O-])c12.O=S(=O)([O-])c1cccc2cccc(N=Cc3ccccc3[O-])c12.[O]=[U]=[O] discrete_label=inactive
compound="CC1=C([Se]CC(OC(=O)CC[Se]c2ccccc2)C(=O)NCCCCCC(=O)OCc2ccccc2)C(=O)c2ccccc2C1=O (stereo not given)" discrete_label=inactive
compound=CCN(Cc1cccc(OC)c1)c1ccc(CO)c(Cl)c1 discrete_label=active
compound=OCc1cn(Cc2cccc(Cl)c2)c2ccccc12 discrete_label=active
compound="CCOP(=O)(OCC)C(NC(c1ccccc1)c1ccccc1)c1ccccc1 (stereo not given)" discrete_label=inactive
compound=O=Cc1c(-c2cc(O)ccc2O)nc2sccn12 discrete_label=inactive
compound=CC(=O)OC[C@H]1O[C@@H](n2ccc(=O)[nH]c2=O)[C@H](OC(C)=O)[C@@H]1OC(C)=O discrete_label=inactive

---

system: SF-268 CNS; assay: NCI tumour cell line growth inhibition, 48 h
Where a SMILES comes first, the peptide text is derived from it.
# TGI per entry
metric-name: TGI

compound=CCC(=O)Nc1ccc(N2C(=O)/C(=C/c3ccc(O)c(OC)c3)N=C2c2ccccc2)cc1 metric_name=TGI result="> 100 µM"
compound="CC(=O)OC1C(=O)C(O)C(C)OC1O[C@@H]1C[C@@]2(C)[C@@H]3CC=C4[C@@H](C[C@H](O)C(=O)C4(C)C)[C@]3(C)C(=O)C[C@]2(C)[C@H]1[C@@](C)(O)C(=O)/C=C/C(C)(C)O (stereo partly specified)" metric_name=TGI result="4.01 µM"
compound=COc1ccc2[nH]c(-c3ccccn3)cc(=O)c2c1 metric_name=TGI result="65.8 µM"
compound="CCC(C)C(NC(=O)C1CCCN1)C(=O)NC(C(=O)NCC(=O)NC(CC(N)=O)C(=O)NC(CC(C)C)C(=O)NC(CC(C)C)C(=O)NC(CCCCN)C(N)=O)C(C)C (stereo unspecified) (H-PIVGNLLK-NH2; configuration not given here)" metric_name=TGI result="> 75 µM"
compound="Cc1cc(=O)[nH]c(NN2C(Cl)C(=O)C2c2ccco2)n1 (stereo unspecified)" metric_name=TGI result="> 100 µM"
compound=CCCCCCCCCCC/C(=N/O)c1ccc(O)c2ncccc12 metric_name=TGI result="> 100 µM"
compound=c1cc2c3c(c1)[C@@H]1O[C@@H]1c1cccc(c1-3)[C@@H]1O[C@H]21 metric_name=TGI result="33.6 µM"
compound="CC12CCC3C(CC=C4CC(O)CCC43C)C1C/C(=C\\N1CCCC1)C2=O (stereo unspecified)" metric_name=TGI result="> 100 µM"
compound=O=c1cnc2cc3ccccc3cc2[nH]1 metric_name=TGI result="> 100 µM"
compound=CC(=O)Nc1nc(C)c(S(=O)(=O)NC(=O)N2c3ccccc3CCc3ccccc32)s1 metric_name=TGI result="> 100 µM"
compound=O=C1NC(=S)N/C1=C\c1ccc(Sc2ccccc2C(=O)O)s1 metric_name=TGI result="> 100 µM"

---

tested on: MDA-N; experiment: NCI tumour cell line growth inhibition, 48 h
*1 amine or outer side, *2 acyl side, *3 side chain or, on linkers, in order; H or OH if unused. Where a SMILES comes first, the peptide text is derived from it. Bridges are numbered along the chain shown (N, C = ends). Roman numbers before positions name the chains, in order. [ ]: non-standard residue; d: D form. Actinocin(9to1) = Cc1c2oc3c(C)ccc(C(=O)[*:1])c3nc-2c(C(=O)[*:2])c(N)c1=O; NMeV = CN[CH](C(=O)O)C(C)C; Sar = CNCC(=O)O
metric-name: TGI

compound="CCCC(CC)c1cc(O)c(O)cc1C(CC)CCC (configuration not stated)" result="> 10 µM"
compound="Cc1cn(C2CC(SCCO)C(CO)O2)c(=O)[nH]c1=O (configuration not stated)" result="> 100 µM"
compound="Cc1ccc(C2(N3CCOCC3)OC(C)(C)c3cccc4cccc2c34)cc1 (configuration not stated)" result="34.1 µM"
compound=NC(=O)CC[C@H]1C(=O)N=C(N)N1C(=O)OCc1ccccc1 result="> 100 µM"
compound="CC(=O)O[C@H]1C(=O)[C@@]2(C)C(C(OC(=O)c3ccccc3)[C@]3(O)CC(OC(=O)[C@H](OC(=O)CCC(=O)O)C(NC(=O)c4ccccc4)c4ccccc4)C(C)=C1C3(C)C)C1(OC(C)=O)COC1C[C@@H]2OC(=O)CCC(=O)O (some centres not stated)" result="1.21 µM"
compound=CCOC(=O)c1c(SCCN2CCCCC2)n(-c2ccccc2)c(=S)n(-c2ccccc2)c1=O result="36.9 µM"
compound="COC(C/C=C\\C=C\\CC/C=C/CC(C)/C=C/C(=C\\C(=O)O)CC(=O)O)/C(C)=C\\C=C(/C)C(=O)O (configuration not stated)" result="> 100 µM"
compound="Cc1c2oc3c(C)ccc(C(=O)NC4C(=O)NC(Cc5ccc(O)cc5)C(=O)N5CCCC5C(=O)N(C)CC(=O)N(C)C(C(C)C)C(=O)OC4C)c3nc-2c(C(=O)NC2C(=O)NC(Cc3ccc(O)cc3)C(=O)N3CCCC3C(=O)N(C)CC(=O)N(C)C(C(C)C)C(=O)OC2C)c(N)c1=O (configuration not stated) (I: TYP[Sar][NMeV] / II: TYP[Sar][NMeV]; ester I:1-I:C, II:1-II:C; linker I:N-II:N via Actinocin(9to1); configuration not given here)" result="> 100 µM"
compound=CC1=C(/C=C/C(C)=C\C=C\C(C)=C\C(=O)Nc2ccc3c(c2)OCO3)C(C)(C)CCC1 result="> 100 µM"
compound=Cc1ccc(C(=O)NN=C(/N=N/c2cccc(C)c2)c2ccc(N(C)C)cc2)cc1 result="> 100 µM"
compound="CCOc1ccccc1N=NC1C(=O)N(C(=O)CC(=O)Nc2ccccc2OC)N=C1C (configuration not stated)" result="> 100 µM"
compound=Oc1ccc(O)c(Sc2nnc(CCCCCCCCc3nnc(Sc4cc(O)ccc4O)o3)o2)c1 result="32.9 µM"

---

# TGI per entry
test system: HOP-62 NSCLC; assay: NCI tumour cell line growth inhibition, 48 h
*1 amine or outer side, *2 acyl side, *3 side chain or, on linkers, in order; H or OH if unused. Where a SMILES comes first, the peptide text is derived from it. Bridges are numbered along the chain shown (N, C = ends). Roman numbers before positions name the chains, in order. [ ]: non-standard residue; d: D form. Actinocin(9to1) = Cc1c2oc3c(C)ccc(C(=O)[*:1])c3nc-2c(C(=O)[*:2])c(N)c1=O; NMeV = CN[CH](C(=O)O)C(C)C; Sar = CNCC(=O)O
metric-name: TGI

compound="CC[C@]1(O)CC2CN(CCc3c([nH]c4ccccc34)[C@@](C(=O)OC)(c3cc4c(cc3OC)N(C)[C@H]3[C@@](O)(C(=O)OC)[C@H](OC(C)=O)[C@]5(CC)C=CCN6CC[C@]43[C@@H]65)C2)C1 (stereo partly drawn)" metric_name=TGI result="9.89 µM"
compound=COc1ccc(/C=N/N=C(\N)NO)cc1OC metric_name=TGI result="> 100 µM"
compound=Cn1c(O)c(/C=N/c2ncccn2)c(=O)[nH]c1=O metric_name=TGI result="> 100 µM"
compound=CN(C)CCCn1c2c(c3cnccc3c1=O)C(=O)c1ccccc1-2 metric_name=TGI result="7.75 µM"
compound=OCc1cn(Cc2cccc(Cl)c2)c2ccccc12 metric_name=TGI result="47.3 µM"
compound=Cc1cccc(-c2nc3c(C(=O)NCCN(C)C)cccc3[nH]2)c1 metric_name=TGI result="3.46 µM"
compound=CCn1c(SCc2nnc(Nc3ccccc3)s2)nc2ccccc2c1=O metric_name=TGI result="12.5 µM"
compound=N[C@@H](Cc1c[nH]c2ccccc12)C(=O)NC1CCN(C(=O)c2c[nH]c3ccccc23)CC1 metric_name=TGI result="> 100 µM"
compound=O=Cc1c(-c2cc(O)ccc2O)nc2sccn12 metric_name=TGI result="26.4 µM"
compound="CCC(C)C(NC(=O)C1CCCN1)C(=O)NC(C(=O)NCC(=O)NC(CC(N)=O)C(=O)NC(CC(C)C)C(=O)NC(CC(C)C)C(=O)NC(CCCCN)C(N)=O)C(C)C (stereo not drawn) (H-PIVGNLLK-NH2; configuration not given here)" metric_name=TGI result="> 75 µM"
compound="COC(=O)C1=C(C)N(NC(N)=O)C2(N)N(NC(N)=O)C(C)=C(C(=O)OC)C12C(=O)OC (stereo not drawn)" metric_name=TGI result="> 100 µM"
compound=CCCCCCCCCC(=O)CC(=O)c1ccc(O)cc1O metric_name=TGI result="46.5 µM"
compound="COC(C/C=C\\C=C\\CC/C=C/CC(C)/C=C/C(=C\\C(=O)O)CC(=O)O)/C(C)=C\\C=C(/C)C(=O)O (stereo not drawn)" metric_name=TGI result="> 100 µM"
compound=COc1ccccc1NC(=O)CSC(N)=O metric_name=TGI result="80.2 µM"
compound="CC(CN(CP(=O)([O-])[O-])CP(=O)([O-])[O-])N(CP(=O)([O-])[O-])CP(=O)([O-])[O-].N.N.[Pt+2] (stereo not drawn)" metric_name=TGI result="> 100 µM"
compound=CCCCN(CCCC)C1=Nc2ccccc2-n2c(nnc2C(=O)OCC)C1 metric_name=TGI result="> 100 µM"
compound=NNc1nnc(-c2ccccc2)nc1Cc1ccccc1 metric_name=TGI result="9.45 µM"
compound="O=C1C(Cl)C(c2cccc(O)c2)N1n1cnc2ccccc2c1=O (stereo not drawn)" metric_name=TGI result="> 100 µM"
compound=O=C(O)c1cc(Nc2c(O)c3c(c(O)c2Cl)C(=O)C=CC3=O)ccc1O metric_name=TGI result="> 10 µM"
compound=Cn1cnc(/C=C/C#N)c1 metric_name=TGI result="> 100 µM"
compound=CN(c1ccc(Cl)cc1)S(=O)(=O)c1ccccc1 metric_name=TGI result="> 100 µM"
compound=CCOC(=O)CC(=O)Sc1ccccc1 metric_name=TGI result="65.6 µM"
compound=Oc1ccc(/C=N\Nc2ccccn2)c(O)c1 metric_name=TGI result="9.55 µM"
compound="CN1C(=O)C(CCO)(C(C)(C)C)c2ccccc21 (stereo not drawn)" metric_name=TGI result="> 100 µM"
compound="Cc1c2oc3c(C)ccc(C(=O)NC4C(=O)NC(Cc5ccc(O)cc5)C(=O)N5CCCC5C(=O)N(C)CC(=O)N(C)C(C(C)C)C(=O)OC4C)c3nc-2c(C(=O)NC2C(=O)NC(Cc3ccc(O)cc3)C(=O)N3CCCC3C(=O)N(C)CC(=O)N(C)C(C(C)C)C(=O)OC2C)c(N)c1=O (stereo not drawn) (I: TYP[Sar][NMeV] / II: TYP[Sar][NMeV]; ester I:1-I:C, II:1-II:C; linker I:N-II:N via Actinocin(9to1); configuration not given here)" metric_name=TGI result="> 52.2 µM"
compound="N#CC(C(=O)/C(=N/N)C(C#N)c1ccc(Cl)cc1)c1ccc(Cl)cc1 (stereo not drawn)" metric_name=TGI result="> 100 µM"
compound="COc1cc2oc(=O)ccc2cc1C1OC(=O)C2OC21C (stereo not drawn)" metric_name=TGI result="> 100 µM"
compound=O=C(O)c1ccc2c(c1)Cc1cc([N+](=O)[O-])ccc1-2 metric_name=TGI result="> 100 µM"
compound=COc1cccc(OC/C(N=Cc2ccncc2)=N/NC(=O)c2ccncc2)c1 metric_name=TGI result="> 100 µM"
compound=CCOC(=O)COC1=Nc2cc(OC)c(OC)c3nc(Cl)cc(c23)C1=O metric_name=TGI result="7.97 µM"
compound=CC(=O)Nc1ccc(C(=O)N2N=C(C)/C(=C/c3ccccc3O)C2=O)cc1 metric_name=TGI result="> 100 µM"
compound=OC1(C(O)(c2ccc(-c3ccccc3)cc2)c2ccc(-c3ccccc3)cc2)CCCCC1 metric_name=TGI result="> 100 µM"
compound=COC(C[C@H]1CCCC[C@]1(O)/C(=C\CO[Si](C(C)C)(C(C)C)C(C)C)Sc1ccccc1)OC metric_name=TGI result="> 100 µM"
compound=O=C(O)Cn1ncn(NC(=O)Cc2ccccc2)c1=S metric_name=TGI result="> 10 µM"
compound=COCCn1cc(-c2csc(-c3c[nH]c4ccccc34)n2)c2cccnc21 metric_name=TGI result="> 100 µM"
compound=OCCCCC#Cc1ccccc1C#Cc1ccccc1 metric_name=TGI result="30.6 µM"
compound=COc1ccc2[nH]c(-c3ccccn3)cc(=O)c2c1 metric_name=TGI result="> 100 µM"
compound=O=c1n(C2CCCCC2)c(=C(Cl)Cl)c(=C(Cl)Cl)n1C1CCCCC1 metric_name=TGI result="> 100 µM"
